Cited source: PubChem BioAssay AID602440

biological target: Sentrin-specific protease 8 (Homo sapiens) (UniProt Q96LD8); assay: blockers of SENP8 deneddylase activity – biochemical, fluorescence, Nedd8 protein substrate, uHTS, primary screen (AID 602440); conditions: recombinant SENP8, Nedd8 substrate fluorescence; at 20 µM
Sequence (Q96LD8 whole entry, looked up): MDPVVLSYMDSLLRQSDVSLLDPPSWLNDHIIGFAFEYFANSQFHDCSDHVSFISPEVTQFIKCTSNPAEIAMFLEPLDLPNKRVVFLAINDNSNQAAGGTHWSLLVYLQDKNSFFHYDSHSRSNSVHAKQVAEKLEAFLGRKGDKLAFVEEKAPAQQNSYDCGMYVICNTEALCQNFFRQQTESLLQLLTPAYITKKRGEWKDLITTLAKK
Out of some 360,000 compounds screened, about 2,300 (0.64%) were called active. No stated cut-off is given here; in the data, active means inhibition mostly above about 40% (no sharp cut-off); inactive means mostly below about 27%. What follows is part of a selection rich in actives, with near analogues and random picks from the rest.
Outcome (select one): active, inactive

Solved entries (count: 5):
• Cc1oc2c(c1C(=O)N1CCOCC1)C(=O)c1ccccc1C2=O = active
• CCOC(=O)c1[nH]c(C)c(C(=O)OCC(=O)N2c3ccccc3CC2C)c1C (stereo unspecified) = inactive
• CCCCn1c(N)c(N(CC(C)C)C(=O)c2ccc(-n3c(C)ccc3C)cc2)c(=O)[nH]c1=O = inactive
• CC1CCCC(NC(=O)c2cccc(N3CCCC3=O)c2)C1C (stereo unspecified) = inactive
• Cc1cc(C)n2nc(C(=O)OCC(=O)N(C)CC(=O)Nc3ccc(F)cc3)nc2n1 = inactive

Query: Would you mind telling me which call this test gave CC(=O)NC(CC(=O)O)c1ccc(F)cc1 (stereo unspecified) ?
Response: inactive

Query: Subsequent entry: O=[N+]([O-])c1ccc(C=Nc2ccc(Cl)cc2Cl)s1
Response: active

Query: Request: CCOC(=O)c1ccc(N2C(=O)CC(N3CCN(C(=O)c4ccccc4)CC3)C2=O)cc1 (stereo unspecified)
Response: inactive

Query: Then what about the compound C=CCOc1ccc(C(=O)Nc2ccccc2C(=O)N2CCCC2)cc1 ?
Response: inactive

Query: What do we get for CCOC(=O)c1c(C)oc(C)c(C(=O)OCC)c1=O ?
Response: inactive

* * *

biological target: Sentrin-specific protease 8 (Homo sapiens); test: blockers of SENP8 deneddylase activity – biochemical, fluorescence, Nedd8 protein substrate, uHTS, primary screen (AID 602440); conditions: recombinant SENP8, Nedd8 substrate fluorescence; at 20 µM
About 2,300 (0.64%) of roughly 360,000 compounds were called active. Rule as the data show it: active = inhibition mostly above about 40% (no sharp cut-off); inactive = mostly below about 27%. This is one part of a sample in which actives are shown more often than they occur.
// one of active, inactive, no free text

Query: Short answer needed: outcome of this test for Cc1cccc(OCC(=O)NC(=S)Nc2ccccc2N2CCOCC2)c1 ?
Response: active

Query: Then this compound: CC(=O)NS(=O)(=O)c1ccccc1
Response: inactive

Query: Okay, and O=C(O)c1cc(S(=O)(=O)Nc2ccc3cn[nH]c3c2)ccc1Br ?
Response: inactive

Query: // query: O=C1C=C(NS(=O)(=O)c2ccccc2)C(=O)c2ccccc21
Response: active

Query: And Cc1ccc(S(=O)(=O)/N=C2\C=C(NS(=O)(=O)c3ccc(C)cc3)C(=O)c3ccccc32)cc1 ?
Response: active

Query: And for CCc1ccc(C(=O)NC(=S)Nc2ccccc2N2CCOCC2)cc1 ?
Response: inactive

Query: Note, next up: Cc1ccc(S(=O)(=O)N/N=C(\c2ccccc2)C2CC2)cc1
Response: inactive

Query: Lookup Cc1cc(O)c(NC(=O)c2ccc(C)c([N+](=O)[O-])c2)cc1C
Response: inactive

Query: Next compound up: CN(C)C(=O)c1ccc(NC(=O)c2ccccc2-c2ccccc2)cc1
Response: inactive

Query: Would you mind doing COC(=O)CCCC1=CC2=CC(=O)C(C)(OC(=O)c3cccs3)C(=O)C2=CN1CC(C)C (stereo not given) as well?
Response: active

Query: Next entry: CCN1N=C(c2ccccc2)CCC1=O
Response: inactive

Query: // same read-out, input: CCc1nnc(NC(=O)CSc2nc3ccccc3c(=O)n2CCCOC)s1
Response: inactive

Query: Try this compound too: COc1ccc(S(=O)(=O)N/N=C\c2ccc(OC)c(COc3ccc(C)cc3[N+](=O)[O-])c2)cc1
Response: inactive

Query: Try this compound too: COc1ccc(-c2nnco2)cc1OC
Response: active

Query: Try this compound too: NC(=O)C1CCN(CC(O)CSc2ccc(F)cc2)CC1 (stereo not given)
Response: inactive
